# reported log10(IC50); entries follow
- target_entity: 20S proteasome
- experimental_details: Inhibition of 20S proteasome (unknown origin) using […] as substrate
measured_quantity: log10(IC50) (log10 of the value in nM)

CC(C)C[C@H](NC(=O)[C@H](Cc1c[nH]c2ccccc12)NC(=O)c1cc(Cc2n[nH]c(=O)c3ccccc23)ccc1F)B1O[C@@H]2C[C@@H]3C[C@@H](C3(C)C)[C@]2(C)O1 ... 1.63
CC(C)C[C@H](NC(=O)[C@H](Cc1c[nH]c2ccccc12)NC(=O)c1cc(Cc2n[nH]c(=O)c3ccccc23)ccc1F)B(O)O ... 1.75
CC(C)C[C@H](NC(=O)[C@@H](NC(=O)c1cc(Cc2n[nH]c(=O)c3ccccc23)ccc1F)[C@H](C)O)B1O[C@@H]2C[C@@H]3C[C@@H](C3(C)C)[C@]2(C)O1 ... 1.14
CC(C)C[C@H](NC(=O)CNC(=O)c1cc(Cc2n[nH]c(=O)c3ccccc23)ccc1F)B(O)O ... 2.59
CC(C)C[C@H](NC(=O)[C@H](Cc1c[nH]c2ccccc12)NC(=O)c1cc(Cc2n[nH]c(=O)c3ccccc23)ccc1F)C(=O)[C@@]1(C)CO1 ... 3.03
Cc1c(Cc2ccc(F)c(C(=O)NCC(=O)N[C@@H](CC(C)C)B3O[C@@H]4C[C@@H]5C[C@@H](C5(C)C)[C@]4(C)O3)c2)n[nH]c(=O)c1C ... 1.60
CC(C)C[C@H](NC(=O)[C@H](Cc1ccccc1)NC(=O)c1cc(Cc2n[nH]c(=O)c3ccccc23)ccc1F)B(O)O ... 1.94
CC(C)C[C@H](NC(=O)[C@H](Cc1ccccc1)NC(=O)c1cc(Cc2n[nH]c(=O)c3ccccc23)ccc1F)C(=O)[C@@]1(C)CO1 ... 3.15
CC(C)C[C@H](NC(=O)CNC(=O)c1cc(Cc2n[nH]c(=O)c3ccccc23)ccc1F)B1O[C@@H]2C[C@@H]3C[C@@H](C3(C)C)[C@]2(C)O1 ... 2.20
CC(C)C[C@H](NC(=O)[C@@H](NC(=O)c1cc(Cc2n[nH]c(=O)c3ccccc23)ccc1F)C(C)(C)C)B1O[C@@H]2C[C@@H]3C[C@@H](C3(C)C)[C@]2(C)O1 ... 1.82
CC(C)C[C@H](NC(=O)[C@H](Cc1ccc(O)cc1)NC(=O)c1cc(Cc2n[nH]c(=O)c3ccccc23)ccc1F)B1O[C@@H]2C[C@@H]3C[C@@H](C3(C)C)[C@]2(C)O1 ... 1.68
CSCC[C@H](NC(=O)c1cc(Cc2n[nH]c(=O)c3ccccc23)ccc1F)C(=O)N[C@@H](CC(C)C)B1O[C@@H]2C[C@@H]3C[C@@H](C3(C)C)[C@]2(C)O1 ... 1.92
CC(C)C[C@H](NC(=O)[C@H](C)NC(=O)c1cc(Cc2n[nH]c(=O)c3ccccc23)ccc1F)B1O[C@@H]2C[C@@H]3C[C@@H](C3(C)C)[C@]2(C)O1 ... 2.12
CC(C)C[C@H](NC(=O)CNC(=O)c1cc(Cc2ccc(=O)[nH]n2)ccc1F)B1O[C@@H]2C[C@@H]3C[C@@H](C3(C)C)[C@]2(C)O1 ... 3.33
CCC[C@H](NC(=O)c1cc(Cc2n[nH]c(=O)c3ccccc23)ccc1F)C(=O)N[C@@H](CC(C)C)B1O[C@@H]2C[C@@H]3C[C@@H](C3(C)C)[C@]2(C)O1 ... 2.01
CC(C)C[C@H](NC(=O)[C@H](Cc1ccccc1)NC(=O)c1cc(Cc2n[nH]c(=O)c3ccccc23)ccc1F)B1O[C@@H]2C[C@@H]3C[C@@H](C3(C)C)[C@]2(C)O1 ... 1.39
CC(C)C[C@H](NC(=O)[C@H](CC(C)C)NC(=O)c1cc(Cc2n[nH]c(=O)c3ccccc23)ccc1F)B1O[C@@H]2C[C@@H]3C[C@@H](C3(C)C)[C@]2(C)O1 ... 1.78
CC(C)C[C@H](NC(=O)[C@@H](NC(=O)c1cc(Cc2n[nH]c(=O)c3ccccc23)ccc1F)C(C)C)B1O[C@@H]2C[C@@H]3C[C@@H](C3(C)C)[C@]2(C)O1 ... 1.99
COC[C@H](NC(=O)c1cc(Cc2n[nH]c(=O)c3ccccc23)ccc1F)C(=O)N[C@@H](CC(C)C)B1O[C@@H]2C[C@@H]3C[C@@H](C3(C)C)[C@]2(C)O1 ... 1.33
CC(C)C[C@H](NC(=O)[C@H](CCc1ccccc1)NC(=O)c1cc(Cc2n[nH]c(=O)c3ccccc23)ccc1F)B1O[C@@H]2C[C@@H]3C[C@@H](C3(C)C)[C@]2(C)O1 ... 1.54

The measurements presented in this section are drawn from ChEMBL document CHEMBL5528008.
